B1: TMEM175 (parent)
chain: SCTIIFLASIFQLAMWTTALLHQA

Variants of: B1
ASSAY TEXT: protein stability index of a GFP-peptide fusion (GPS, HEK-293T) (PSI 1-6); higher = more stable;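 also: lentivirally expressed fusions sorted by FACS into six bins by GFP to DsRed ratio, PSI derived from sequencing read proportions per bin multiplied by bin number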
SETUP CONDITIONS: c terminus: a fixed tail appended
Let's look at some variants and their measured protein stability index.
Number, no unit, nothing else.

Known protein stability index results, listed for orientation:
{"VARIANT": "I4T", "protein stability index": 2.72}
{"VARIANT": "L7C", "protein stability index": 3.2}
{"VARIANT": "L21A", "protein stability index": 1.45}
{"VARIANT": "Q23S", "protein stability index": 3.77}
{"VARIANT": "S1E", "protein stability index": 1.31}

Lookup: # protein stability index lookup, item "L21F"
Found: 2.81

Lookup: Follow-up item: "L20D"
Found: 3.05

Lookup: Follow-up item: "I4H"
Found: 3.04

Lookup: Follow-up item: "A19T"
Found: 3.07

Lookup: Follow-up item: "L20N"
Found: 3.09

Lookup: Follow-up item: "F6D"
Found: 3.81

Lookup: Follow-up item: "Q12M"
Found: 2.6

Lookup: Follow-up item: "L7T"
Found: 3.83

Lookup: Follow-up item: "A24H"
Found: 2.67

Lookup: Follow-up item: "C2G"
Found: 3.98

Lookup: Follow-up item: "I10P"
Found: 2.65

Lookup: Follow-up item: "S9Q"
Found: 4.14

Lookup: Follow-up item: "A14S"
Found: 2.58
